Data provenance: ChEMBL document CHEMBL1240448

Consider the following compounds; for each one, report its pIC50.
# Tested on: A2780
# test-description: Cytotoxicity against human A2780 cells after 96 hrs by MTT assay
# settings: A2780, 96 h
Answers are plain numbers, as −log10 of the molar value.

Worked examples, 3 compounds total:
[
  {
    "compound": "COC(=O)C(Cc1c[nH]c2ccccc12)NC(=O)Cn1cc(C2=C(c3c[nH]c4ccccc34)C(=O)N(C)C2=O)c2ccccc21 (single isomer, unassigned)",
    "target-or-test-system": "A2780",
    "assay-readout": "pIC50",
    "measured-value": 5.27
  },
  {
    "compound": "COC(=O)CCNC(=O)Cn1cc(C2=C(c3c[nH]c4ccccc34)C(=O)N(C)C2=O)c2ccccc21",
    "target-or-test-system": "A2780",
    "assay-readout": "pIC50",
    "measured-value": 4.35
  },
  {
    "compound": "COC(=O)CNC(=O)Cn1cc(C2=C(c3c[nH]c4ccccc34)C(=O)N(C)C2=O)c2ccccc21",
    "target-or-test-system": "A2780",
    "assay-readout": "pIC50",
    "measured-value": 4.47
  }
]

[ask] Name the reported pIC50 value associated with the compound COC(=O)CCC(NC(=O)Cn1cc(C2=C(c3c[nH]c4ccccc34)C(=O)N(C)C2=O)c2ccccc21)C(=O)OC (single isomer, unassigned)
[reply] 4.49
